Task for the reader: assign each of the following compounds its reported CC50.
- TARGET SYSTEM: GAL4 DBD (1-147)-CfEcR(DEF)/VP16AD-βRXREF-LmUSPEF (Choristoneura fumiferana, UniProt O77240)
- Sequence (O77240 191-513): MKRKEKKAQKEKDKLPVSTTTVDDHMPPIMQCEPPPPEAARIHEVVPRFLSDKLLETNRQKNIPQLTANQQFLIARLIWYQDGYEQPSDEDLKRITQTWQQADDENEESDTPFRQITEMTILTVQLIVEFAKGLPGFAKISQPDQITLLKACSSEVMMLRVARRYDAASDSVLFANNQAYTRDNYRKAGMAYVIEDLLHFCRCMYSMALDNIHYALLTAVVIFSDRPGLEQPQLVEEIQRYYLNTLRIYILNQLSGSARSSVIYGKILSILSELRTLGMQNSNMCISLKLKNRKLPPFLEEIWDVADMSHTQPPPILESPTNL
- Sequence (P28702 296-455 partner limits assumed): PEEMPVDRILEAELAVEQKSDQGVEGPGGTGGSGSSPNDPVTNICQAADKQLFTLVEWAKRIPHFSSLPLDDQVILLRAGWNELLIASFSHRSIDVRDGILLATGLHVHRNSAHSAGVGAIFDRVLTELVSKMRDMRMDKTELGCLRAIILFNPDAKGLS
- ASSAY DETAILS: 27-63 assay: luciferase reporter gene expression in stable CHO cell clone 27-63
- CONDITION SUMMARY: read-out: 27-63 LC50; average; dose response, three-parameter logistic model
- Procedure: GAL4 DBD (1-147)-CfEcR(DEF)/VP16AD-βRXREF-LmUSPEF: The wild-type D, E, and F domains from spruce budworm Choristoneura fumiferana EcR (“CfEcR-DEF”; SEQ ID NO: 1) were fused to a GAL4 DNA binding domain (“Gal4 DBD1-147”; nucleotides 31 to 471 of SEQ ID NO: 2) and placed under the control of a phosphoglycerate kinase promoter (“PGK”; SEQ ID NO: 3). […] Luciferase reporter gene expression was measured 48 h after cell treatment using Bright-Glo™ Luciferase Assay System from Promega (E2650). […]
Express it in µM; write the number only.

So what does the record say about CC50 for `COc1cccc(C(=O)NC2(C(=O)c3cc(F)c(F)c(OC)c3)CCCCC2)c1C` ?
3.7

`COc1cccc(C(=O)NC2(C(=O)c3cc(C)cc(C)c3)CCCCC2)c1C` , same question.
1.43

Next compound: COc1cccc(C(=O)NC(C)(C(=O)c2ccccc2C)C(C)C)c1C (stereo not drawn)
27.2

Now try `COc1cccc(C(=O)NC2(C(=O)c3ccccc3)CCCCC2)c1C` .
14.4

Can you check `COc1cccc(C(=O)NC2(C(=O)c3cc(C)cc(C)c3)CCCCCC2)c1C` next?
2.97

====

- TARGET SYSTEM: GAL4 DBD (1-147)-CfEcR(DEF)/VP16AD-βRXREF-LmUSPEF (Choristoneura fumiferana)
- ASSAY DETAILS: 27-63 assay: luciferase reporter gene expression in stable CHO cell clone 27-63
- CONDITION SUMMARY: read-out: 27-63 LC50; average; dose response, three-parameter logistic model
Record form. Attribute: CC50. Fill in for each entry.
Respond numerically; units are µM and should not be typed.

Can you share its CC50? I mean this molecule: `Cc1cc(C)cc(C(=O)C2(NC(=O)c3ccc4c(c3C)OCO4)CCCCC2)c1`
3.22

What would you report for `COc1cc(C(=O)C2(NC(=O)c3cccc(OC)c3C)CCCCC2)cc(OC)c1C` ?
14.5

One more molecule: `Cc1cc(C)cc(C(=O)C2(NC(=O)c3ccc4c(c3)OCCO4)CCCCC2)c1`
1.78

And what about the molecule `COc1cccc(C(=O)NC2(C(=O)c3cc(C)cc(C)c3)CCOCC2)c1C` ?
10

// same read-out, input: `COc1cccc(C(=O)NC2(C(=O)c3ccc(C)cc3)CCCC2)c1C`
4.38

Do the same for `CCc1ccc(C(=O)NC2(C(=O)c3cc(C)cc(C)c3)CCCC2)cc1` please
3.59

Follow-up item: `COc1cccc(C(=O)NC2(C(=O)c3ccc(F)c(C)c3)CCCCC2)c1C`
3.27

====

- TARGET SYSTEM: Bombyx mori EcR (VP16 fusion, switch construct CVBE) with 6XEcRE LacZ reporter (Bombyx mori, UniProt P49881)
- Construct: expressed in transfected cells; host or cells: Human 293 kidney (HEK-293) cells, retrovirally infected, clone Z3
- Sequence (P49881 86-606 limits assumed): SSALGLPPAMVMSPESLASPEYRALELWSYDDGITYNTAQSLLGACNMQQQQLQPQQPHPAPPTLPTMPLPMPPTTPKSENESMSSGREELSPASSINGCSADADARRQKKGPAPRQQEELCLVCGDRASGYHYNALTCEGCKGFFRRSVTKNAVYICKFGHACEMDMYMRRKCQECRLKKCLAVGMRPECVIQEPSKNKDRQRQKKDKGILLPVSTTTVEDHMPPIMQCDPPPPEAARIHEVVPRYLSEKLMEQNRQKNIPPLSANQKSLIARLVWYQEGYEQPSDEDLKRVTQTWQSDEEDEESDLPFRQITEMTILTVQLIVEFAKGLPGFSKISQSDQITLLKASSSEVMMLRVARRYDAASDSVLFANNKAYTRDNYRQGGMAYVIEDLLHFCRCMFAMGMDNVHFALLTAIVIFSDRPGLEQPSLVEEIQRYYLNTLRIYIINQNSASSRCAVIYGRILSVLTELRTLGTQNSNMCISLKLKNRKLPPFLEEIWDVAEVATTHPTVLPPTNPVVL
- Sequence (P19793 whole entry partner, the tested form may be a part): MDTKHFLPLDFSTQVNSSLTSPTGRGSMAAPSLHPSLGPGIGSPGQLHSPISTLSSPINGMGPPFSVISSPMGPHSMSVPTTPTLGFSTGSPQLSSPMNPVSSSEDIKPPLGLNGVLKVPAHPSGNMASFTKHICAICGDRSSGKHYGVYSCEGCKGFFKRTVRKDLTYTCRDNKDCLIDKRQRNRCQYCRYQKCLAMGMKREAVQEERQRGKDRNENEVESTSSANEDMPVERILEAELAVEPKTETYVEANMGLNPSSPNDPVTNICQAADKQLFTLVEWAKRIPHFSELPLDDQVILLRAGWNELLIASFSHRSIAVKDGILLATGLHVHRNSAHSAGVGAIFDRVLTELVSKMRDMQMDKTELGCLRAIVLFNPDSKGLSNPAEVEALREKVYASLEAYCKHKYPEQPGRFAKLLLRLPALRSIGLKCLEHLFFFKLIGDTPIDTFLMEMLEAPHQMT
- ASSAY DETAILS: Z3 assay: β-galactosidase (LacZ) reporter gene fold induction in stably transformed human 293 kidney cells (clone Z3)
- Type: cell-based
- CONDITION SUMMARY: read-out: Z3 LC50; average; dose response, three-parameter logistic model
PARAMETER MEASURED: CC50 (µM)
Give your result in µM as a bare value.

Param item = `COc1cccc(C(=O)NC2(C(=O)c3cc(F)c(F)c(OC)c3)CCCCC2)c1C` ; retrieve measured CC50.
2.83

Further, for `COc1cccc(C(=O)NC2(C(=O)c3ccc(F)c(C)c3)CCCC2)c1C` ?
3.47

// repeat for `COc1cccc(C(=O)C2(NC(=O)c3cccc(OC)c3C)CCCCC2)c1` and report
1.19

Try this molecule too: COc1cccc(C(=O)NC(C)(CC(C)C)C(=O)c2cc(C)cc(C)c2)c1C (centres unmarked)
3.4

====

Kindly supply the reported CC50 values for the records listed here.
- TARGET SYSTEM: GAL4 DBD (1-147)-CfEcR(DEF)/VP16AD-βRXREF-LmUSPEF (Choristoneura fumiferana, UniProt O77240)
- ASSAY DETAILS: 27-63 assay: luciferase reporter gene expression in stable CHO cell clone 27-63
- CONDITION SUMMARY: read-out: 27-63 LC50; average; dose response, three-parameter logistic model
Give the value in µM but do not write µM after it.

Which CC50 is reported for this compound? `COc1ccccc1C(=O)C1(NC(=O)c2cccc(OC)c2C)CCCC1`
6.61

Similarly, `COc1cccc(C(=O)NC2(C(=O)c3cc(C)cc(C)c3)CCSCC2)c1C` ?
1.8

What do you get for `COc1cccc(C(=O)NC2(C(=O)c3cccc(C)c3)CCCCC2)c1C` ?
3.52

Repeat for the following compound: `CCc1c(C(=O)NC2(C(=O)c3ccccc3)CCCC2)ccc2c1OCCO2`
10.8

Same thing, different compound: `CCc1c(OC)cccc1C(=O)NC1(C(=O)c2cc(C)cc(C)c2)CCCCC1`
1.5

Then `Cc1cc(C)cc(C(=O)C2(NC(=O)c3ccc4c(c3C)OCO4)CCCC2)c1` ?
3.86

Now consider `CCc1c(C(=O)NC2(C(=O)c3cc(C)cc(C)c3)CCCCC2)ccc2c1OCCO2` .
0.39

Lookup `Cc1cc(C)cc(C(=O)C2(NC(=O)c3ccc4c(c3)COCO4)CCCC2)c1`
18.7

Field entry: `COc1cccc(C(=O)NC2(C(=O)c3cc(C)cc(C)c3)CCCC2)c1C`
1.91

Next entry: `COc1ccccc1C(=O)C1(NC(=O)c2cccc(OC)c2C)CCCCCC1`
3.36

Now give it for `CCCCC(=O)C1(NC(=O)c2cccc(OC)c2C)CCCCC1` too.
9.05

====

- TARGET SYSTEM: Bombyx mori EcR (VP16 fusion, switch construct CVBE) with 6XEcRE LacZ reporter (Bombyx mori, UniProt P49881)
- Construct: expressed in transfected cells; host or cells: Human 293 kidney (HEK-293) cells, retrovirally infected, clone Z3
- ASSAY DETAILS: Z3 assay: β-galactosidase (LacZ) reporter gene fold induction in stably transformed human 293 kidney cells (clone Z3)
- Type: cell-based
- CONDITION SUMMARY: read-out: Z3 LC50; average; dose response, three-parameter logistic model
PARAMETER MEASURED: CC50 (µM)
The response must be a number in µM with no trailing unit.

Entry under review: `COc1ccc(C(=O)C2(NC(=O)c3cccc(OC)c3C)CCCCC2)c(OC)n1` . Reported CC50?
2.62

Same again, this time with COc1cccc(C(=O)NC(C)(C(=O)c2cc(C)cc(C)c2)C(C)C)c1C (stereo not shown)
2.06

Next up: `CCCCC(=O)C1(NC(=O)c2cccc(OC)c2C)CCCCC1`
6.33

Input `COc1cccc(C(=O)NC2(C(=O)c3ccc(C)cc3)CCCCC2)c1C`
3.01

Do the same for `COc1cccc(C(=O)NC2(C(=O)c3ccccc3)CCCCC2)c1C` please
7.52

Next entry: `COc1ccccc1C(=O)C1(NC(=O)c2cccc(OC)c2C)CCCC1`
5.16

Note, next up: `COc1cccc(C(=O)NC2(C(=O)c3cc(F)c(F)c(OC)c3)CCCC2)c1C`
4.17

Input `COc1cccc(C(=O)NC2(C(=O)c3cccc(C)c3)CCCC2)c1C`
3.38

Next record, please: COc1cccc(C(=O)C(C)(NC(=O)c2cccc(OC)c2C)C(C)C)c1 (stereo not shown)
25.5

Also COc1cccc(C(=O)C(C)(CC(C)C)NC(=O)c2cccc(OC)c2C)c1 (stereo not shown) ?
23.7

Entry to check: `CCC(CC)(NC(=O)c1cccc(OC)c1C)C(=O)c1ccc(F)c(C)c1`
10.4

Same thing, different compound: `COc1cccc(C(=O)NC2(C(=O)c3cccc(C)c3)CCC2)c1C`
10.7

====

- TARGET SYSTEM: Gal4 DBD/AaEcR (DEF) with VP16-βRXR-E (Aedes aegypti)
- Construct: The wildtype D, E, and F domains from mosquito Aedes aegypti EcR (“AaEcR-DEF”); expressed in transfected cells; host or cells: 3T3 cells, transient transfection (Superfect)
- Sequence (P28704 286-520 A311G/G315S/G445S/I449V): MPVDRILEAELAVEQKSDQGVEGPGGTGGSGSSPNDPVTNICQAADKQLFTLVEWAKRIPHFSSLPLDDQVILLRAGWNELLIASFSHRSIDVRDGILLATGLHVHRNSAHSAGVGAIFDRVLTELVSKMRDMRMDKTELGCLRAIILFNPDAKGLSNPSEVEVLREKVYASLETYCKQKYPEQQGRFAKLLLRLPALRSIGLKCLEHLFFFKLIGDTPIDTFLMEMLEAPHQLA
- Sequence (P49880 405-776): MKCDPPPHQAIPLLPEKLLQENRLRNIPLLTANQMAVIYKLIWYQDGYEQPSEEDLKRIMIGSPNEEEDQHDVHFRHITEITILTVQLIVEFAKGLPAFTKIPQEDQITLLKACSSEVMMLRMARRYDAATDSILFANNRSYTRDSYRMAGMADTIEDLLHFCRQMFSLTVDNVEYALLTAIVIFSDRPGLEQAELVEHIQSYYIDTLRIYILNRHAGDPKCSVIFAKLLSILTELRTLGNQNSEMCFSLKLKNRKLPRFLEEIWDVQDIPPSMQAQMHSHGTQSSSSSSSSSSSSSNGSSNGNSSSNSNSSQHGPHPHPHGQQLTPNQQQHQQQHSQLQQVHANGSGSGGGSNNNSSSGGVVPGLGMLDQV
- ASSAY DETAILS: cell-based
- Assay type: cell-based
- CONDITION SUMMARY: average; dose response 33 μM to 0.01 μM, three-parameter logistic model; read-out: AA_3T3 LC50
Please go through the items and note down their LC50 (half-maximal ligand concentration for reporter induction).
The reply should be a number in µM, with the unit left off.

So what's the measured LC50 (half-maximal ligand concentration for reporter induction) for this one? `CCc1c(OC)cccc1C(=O)NC1(C(=O)c2cc(C)cc(C)c2)CCCC1`
2.67

Would you mind doing `CCc1c(OC)cccc1C(=O)NC1(C(=O)c2cc(C)cc(C)c2)CCCCC1` as well?
2.81

Record: `COc1ccccc1C(=O)C1(NC(=O)c2cccc(OC)c2C)CCCCCC1`
3.21

Consider next the molecule `COc1cccc(C(=O)NC2(C(=O)c3cc(C)cc(C)c3)CCCCCC2)c1C` in the same way.
8.18
